All figures here come from patent US12479850B2.

molecular target: Axl kinase domain recombinant protein (Homo sapiens); test: ELISA kinase activity assay, Axl
Measured IC50 values are reported for all entries that follow.

Reference set (3 entries):
Please give the measured IC50 for this compound: Cn1cc(-c2cc(Oc3ccc(NC(=O)c4cn(CC5CC5)c(=O)n(-c5ccc(F)cc5)c4=O)cc3F)ccn2)cn1 < 10 nM

Using the record for CCCn1cc(C(=O)Nc2ccc(Oc3ccnc(-c4cnn(C)c4)c3)c(F)c2)c(=O)n(-c2ccc(F)cc2)c1=O , report its IC50. < 10 nM

What value of IC50 has been reported for the following compound? CC(C)n1cc(C(=O)Nc2ccc(-c3cc(-c4cn[nH]c4)cnc3N)c(F)c2)c(=O)n(-c2ccc(F)cc2)c1=O > 100 nM

# next compound below
What value of measured IC50 is listed for CC(C)n1cc(C(=O)Nc2ccc(Oc3ccnc4c3CC(=O)N4)c(F)c2)c(=O)n(-c2ccc(F)cc2)c1=O ? 10 to 100 nM

---

target: Axl kinase domain recombinant protein (Homo sapiens); assay: ELISA kinase activity assay, Axl
pIC50: −log10 of the molar value.
Reported values of pIC50 for individual entries

Sample records with pIC50:
Lab note: need pIC50 with Axl kinase domain recombinant protein (Homo sapiens) for entry CC(C)n1cc(C(=O)Nc2ccc(Oc3ccnc4[nH]cc(Br)c34)c(F)c2)c(=O)n(-c2ccc(F)cc2)c1=O [No. 42] , please look it up. > 8.00

Fill in the recorded pIC50 for this compound, with Axl kinase domain recombinant protein (Homo sapiens) as test system: Cn1cc(-c2cc(Oc3ccc(NC(=O)c4cn(C5CCCC5)c(=O)n(-c5ccc(F)cc5)c4=O)cc3F)ccn2)cn1 [No. 11] > 8.00

What value of pIC50 on Axl kinase domain recombinant protein (Homo sapiens) does CC(C)n1cc(C(=O)Nc2ccc(Oc3ccnc(-c4cnn(C)c4)c3)c(F)c2)c(=O)n(-c2ccc(F)c(F)c2)c1=O [No. 19] have? > 8.00

Given the entry C=CCn1cc(C(=O)Nc2ccc(Oc3ccnc(-c4cnn(C)c4)c3)c(F)c2)c(=O)n(-c2ccc(F)cc2)c1=O [No. 7] , what pIC50 was observed with Axl kinase domain recombinant protein (Homo sapiens)? > 8.00

Given the entry CC(C)n1cc(C(=O)Nc2ccc(Oc3ccnc(-c4cnn(C)c4)c3)c(F)c2)c(=O)n(-c2cnn(C)c2)c1=O [No. 21] , what pIC50 was observed with Axl kinase domain recombinant protein (Homo sapiens)? 7.00 to 8.00

New cases:
Lab request: please report pIC50 under test system Axl kinase domain recombinant protein (Homo sapiens) for CC(C)n1cc(C(=O)Nc2ccc(Oc3ccnc(-c4cnn(C)c4)c3)c(F)c2)c(=O)n(-c2ccncc2)c1=O [No. 20] < 7.00

GET /values?readout=pIC50&system=Axl kinase domain recombinant protein (Homo sapiens)&item= C#CCn1cc(C(=O)Nc2ccc(Oc3ccnc(-c4cnn(C)c4)c3)c(F)c2)c(=O)n(-c2ccc(F)cc2)c1=O [No. 8] 7.00 to 8.00

---

target: Axl kinase domain recombinant protein (Homo sapiens, UniProt P30530); assay: ELISA kinase activity assay, Axl
Property measured: IC50

// fetch Axl kinase domain recombinant protein (Homo sapiens, UniProt P30530) IC50 for COCCn1cc(C(=O)Nc2ccc(Oc3ccnc(-c4cnn(C)c4)c3)c(F)c2)c(=O)n(-c2ccc(F)cc2)c1=O [No. 10] < 10 nM

# value lookup — system Axl kinase domain recombinant protein (Homo sapiens, UniProt P30530), readout IC50, item CCn1cc(C(=O)Nc2ccc(Oc3ccnc(-c4cnn(C)c4)c3)c(F)c2)c(=O)n(-c2ccc(F)cc2)c1=O [No. 2] < 10 nM

Lab request: please report IC50 under test system Axl kinase domain recombinant protein (Homo sapiens, UniProt P30530) for Cn1cc(-c2cc(Oc3ccc(NC(=O)c4cn(-c5ccc(F)cc5)c(=O)n(-c5ccc(F)cc5)c4=O)cc3F)ccn2)cn1 [No. 12] > 100 nM

Provide value of IC50 for this record tested with Axl kinase domain recombinant protein (Homo sapiens, UniProt P30530): CC(C)n1cc(C(=O)Nc2ccc(Oc3ncnc4[nH]cc(-c5ccccc5)c34)c(F)c2)c(=O)n(-c2ccc(F)cc2)c1=O [No. 44] < 10 nM

Short answer please: IC50, Axl kinase domain recombinant protein (Homo sapiens, UniProt P30530), entry CC(C)n1cc(C(=O)Nc2ccc(Oc3ccnc(-c4cnn(C)c4)c3)c(F)c2)c(=O)n(-c2ccccc2F)c1=O [No. 18] < 10 nM

Next:
# value lookup — system Axl kinase domain recombinant protein (Homo sapiens, UniProt P30530), readout IC50, item CC(C)n1cc(C(=O)Nc2ccc(Oc3ccnc(-c4cnn(C)c4)c3)c(F)c2)c(=O)n(-c2ccccc2)c1=O [No. 13] 10 to 100 nM

Record lookup: for Axl kinase domain recombinant protein (Homo sapiens, UniProt P30530), what IC50 belongs to CC(C)n1cc(C(=O)Nc2ccc(Oc3ccnc(-c4cnn(C)c4)c3)c(F)c2)c(=O)n([C@H]2CC[C@H](C)CC2)c1=O [No. 22] ? 10 to 100 nM

Recall the recorded IC50 for CC(C)n1cc(C(=O)Nc2ccc(Oc3ccnc(-c4cnn(C)c4)c3)c(F)c2)c(=O)n(-c2cccc(F)c2)c1=O [No. 17] with Axl kinase domain recombinant protein (Homo sapiens, UniProt P30530) and state it. < 10 nM

# value lookup — system Axl kinase domain recombinant protein (Homo sapiens, UniProt P30530), readout IC50, item COc1cc(-c2cnc(N)c(-c3ccc(NC(=O)c4cn(C(C)C)c(=O)n(-c5ccc(F)cc5)c4=O)cc3F)c2)ccc1OC[C@H]1COCCO1 [No. 39] < 10 nM

Query for Axl kinase domain recombinant protein (Homo sapiens, UniProt P30530): what IC50 does the record show for CC(C)n1cc(C(=O)Nc2ccc(Oc3ccnc4c3CCN4)c(F)c2)c(=O)n(-c2ccc(F)cc2)c1=O [No. 51] ? < 10 nM

---

molecular target: Axl kinase domain recombinant protein (Homo sapiens); test: ELISA kinase activity assay, Axl
Property measured: IC50

# get_value(readout= IC50, system= Axl kinase domain recombinant protein (Homo sapiens)) for COc1ccc(-n2c(=O)c(C(=O)Nc3ccc(Oc4ccnc(-c5cnn(C)c5)c4)c(F)c3)cn(C(C)C)c2=O)cc1 > 100 nM

---

target: c-Met kinase domain recombinant protein (Homo sapiens, UniProt P08581); assay: ELISA kinase activity assay, c-Met
Sequence (P08581 1078-1345 limits assumed): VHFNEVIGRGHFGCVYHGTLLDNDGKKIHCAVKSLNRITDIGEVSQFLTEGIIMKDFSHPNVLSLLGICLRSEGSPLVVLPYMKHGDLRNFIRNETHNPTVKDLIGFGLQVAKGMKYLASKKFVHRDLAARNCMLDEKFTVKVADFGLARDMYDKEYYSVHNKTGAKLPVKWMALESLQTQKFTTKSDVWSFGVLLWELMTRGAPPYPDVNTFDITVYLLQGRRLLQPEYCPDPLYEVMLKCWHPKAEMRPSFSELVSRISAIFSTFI
Property measured: IC50

Solved entries:
Need IC50, item CC(C)n1cc(C(=O)Nc2ccc(-c3cc(-c4cnn(C)c4)cnc3N)c(F)c2)c(=O)n(-c2ccc(F)cc2)c1=O < 10 nM

Item under review: CC(C)n1cc(C(=O)Nc2ccc(Oc3ccnc(-c4cnn(C)c4)c3)c(F)c2)c(=O)n(-c2ccc(F)c(F)c2)c1=O . Reported IC50? < 10 nM

What measured IC50 goes with Cc1ccc(-n2c(=O)c(C(=O)Nc3ccc(Oc4ccnc(-c5cnn(C)c5)c4)c(F)c3)cn(C(C)C)c2=O)cc1 ? < 10 nM

Continuing:
Field request: IC50 | item: CC(C)n1cc(C(=O)Nc2ccc(Oc3ccnc(-c4cnn(C5CC5)c4)c3)c(F)c2)c(=O)n(-c2ccc(F)cc2)c1=O 10 to 100 nM

State the recorded IC50 for this entry: CCn1cc(C(=O)Nc2ccc(Oc3ccnc(-c4cnn(C)c4)c3)c(F)c2)c(=O)n(-c2ccc(F)cc2)c1=O < 10 nM

# lookup: IC50 of CC(C)n1cc(C(=O)Nc2ccc(Oc3cc4cnn(C)c4cc3-c3cn[nH]c3)c(F)c2)c(=O)n(-c2ccc(F)cc2)c1=O 10 to 100 nM

Look up IC50: Cn1cc(-c2cc(Oc3ccc(NC(=O)c4cn(-c5ccc(F)cc5)c(=O)n(-c5ccc(F)cc5)c4=O)cc3F)ccn2)cn1 > 100 nM

---

Target: Axl kinase domain recombinant protein (Homo sapiens)
Sequence (P30530 536-807 limits assumed): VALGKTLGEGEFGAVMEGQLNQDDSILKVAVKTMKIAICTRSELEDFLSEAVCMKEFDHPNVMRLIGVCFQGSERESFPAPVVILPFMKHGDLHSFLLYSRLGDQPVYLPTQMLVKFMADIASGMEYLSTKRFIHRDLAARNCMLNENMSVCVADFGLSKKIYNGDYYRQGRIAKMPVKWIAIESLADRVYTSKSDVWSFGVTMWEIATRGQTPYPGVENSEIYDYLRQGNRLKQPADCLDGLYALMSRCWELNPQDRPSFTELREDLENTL
Assay: ELISA kinase activity assay, Axl
pIC50: −log10 of the molar value.
The reader will find reported pIC50 values listed item by item below.

Some solved cases for reference:
Returns the measured pIC50 for the input molecule. Input: Cn1cc(-c2cc(Oc3ccc(NC(=O)c4cn(CC5CCCC5)c(=O)n(-c5ccc(F)cc5)c4=O)cc3F)ccn2)cn1 [No. 6] 7.00 to 8.00

Can you look up the measured pIC50 of CC(C)n1nc(C(=O)Nc2ccc(Oc3ccnc(-c4cnn(C)c4)c3)c(F)c2)c(=O)n(-c2ccc(F)cc2)c1=O [No. 24] for me? > 8.00

---
Looking for the measured pIC50 of Cn1cc(-c2cc(Oc3ccc(NC(=O)c4cn(C)c(=O)n(-c5ccc(F)cc5)c4=O)cc3F)ccn2)cn1 [No. 1] , can you help? > 8.00

Which pIC50 is reported for this molecule? CC(C)n1cc(C(=O)Nc2ccc(Oc3cc4cnn(C)c4cc3-c3cn[nH]c3)c(F)c2)c(=O)n(-c2ccc(F)cc2)c1=O [No. 50] > 8.00
